assaySystem: human ErbB2, full length, on cells (B300.19/hErbB2 clone #44; MCF7; BT474; SKBR3) (human)
Overview of reported N1 % Inhibition @40 µg/ml, BT474 cell proliferation across a group of binders:
Express it in %; write the number only.

Would you please look over these solved cases?
{"binder": "monoclonal antibody 1.39 (antibody, V domains shown) VH: QLQLQESGPGLVKPSETLSLTCTVSGGSISSSTYYWGWIRQPPGKGLEWIGTIYYSGSTYYNPSLKSRVTISVDTSKNQFSLKLNSVTAADTAVYYCARHHWVFDYWGQGTLVTVSS VL: EIVLTQSPDFLSVTPKEKVTITCRASQIIGSSLHWYQQKPDQSPKLLIKYASQSFSGVPSRFSGSGSGTDFTLTLNSLEAEDAATYYCHQSTILPWTFGQGTKVEIK", "obsValue": 29}
{"binder": "monoclonal antibody 1.18.1 (antibody, V domains shown) VH: QVQLVESGGGVVQPGRSLRLSCAASGFTFSSYGMHWVRQAPGKGLEWVAVIWYDRSNKYYADSVKGRFTISRDNSKNTLYLQMDSLRAEDTAVYYCAGGRSRGAFDYWGQGTLVTVSS VL: DIQMTQSPSSLSASVGDRVTITCRASQGIRNYLAWFQQKPGKAPKSLIYAASSLQSGVPSTFSGSGSGTHFTLTISSLQPEDFASYFCQQYEIYPLTFGGGTKVEIK", "obsValue": 34}
{"binder": "monoclonal antibody 1.14.1 (antibody, V domains shown) VH: QLQLQESGPGLVKPSETLSLTCTVSGDSISSFIYYWGWIRQPPGKGLEWIGTIYYSGSTYYNPSLKSRVTISVDTSKNQFSLKLRSVTAADTAVYYCARHHWVFDYWGQGTQVTVSS VL: DIVLTQFPDFQSVTPKEKVTITCRASQVIGSSLHWYQQKPDQSPKLLIKYASQSFSGVPSRFSGSGSGTDFTLTINSLEVEDAATYYCHQSTILPWTFGQGTKVEVK", "obsValue": 38}
{"binder": "monoclonal antibody 1.96 (antibody, V domains shown) VH: EVQLVESGGGLVQPGGSLRLSCAASGFTFSSYWMSWVRQAPGKGLEWVANIKQDGSEKYYVDSVKGRFTISRDNAKNSLYLQMNSLRAEDTAVYYCARWGVFGSGSYYIPFDYWGQGTLVTVSS VL: DIQMTQSPSSLSASVGDRVTITCRASHSITRYINWYQQKPGKAPNLLIYAASSLQSGVPSRFSGSGSGTDFTLTISSPQPEDFATYYCQQSYSSPPITFGQGTRLEIK", "obsValue": 35}
{"binder": "monoclonal antibody 1.20 (antibody, V domains shown) VH: QLQLQESGPGLVKPSETLSLTCTVSGGSISSSNYYWGWIRQPPGKGLEWIGTIYYTGSTYYNPSLKSRVTISVDTSKNQFSLKLSSVTAADTAVYYCARHHWVFDYWGQGTLVTVSS VL: DIQMTQSPSSVSASVGDRVTITCRASQGISSWLAWYQQKPGKAPKLLIYAASSLQSGVPSRFSGSGSGTDFTLTISSLQPEDFATYYCQRTNSFPRTFGQGTKVEIK", "obsValue": 40}

N1 % Inhibition @40 µg/ml, BT474 cell proliferation lookup needed for monoclonal antibody 1.100.1 (antibody, V domains shown) VH: QLQLQESGPGLVKPSETLSLTCTVSGGFISSSSYYWGWIRQPPGKGLEWIGTIYYSGTTYYNSSLKSRVTISVDTSQNQFSLKLSSVTAADTAVYYCARHHWVFDYWGQGTLVTVSS VL: EVVLTQSPDFQSVTPKEKITITCRASQIIGTSLHWYQKKPDQSPKLLIKYASQSFSGVPSRFSGSGSGTEFTLTINSLEAEDTATYYCHQSTNLPWTFGQGTKVEIK , thanks.
35
